# Target Of Assay: UniProtKB Q6PHR2
# Measurement Description: DSF (ULK3) thermal shift
# Type: binding
Binary label based on DSF (ULK3) ΔTm (° C.) with cut-off 10 °C: below gives y, not below gives n.

molecule=CN1CCC(c2cnc(Nc3nc(-c4ccc(C(=O)NCC(F)(F)F)cc4)c4cc[nH]c4n3)cc2F)CC1 target_of_assay="UniProtKB Q6PHR2" label=y
molecule="N#CC(NC(=O)c1ccc(-c2ccnc(Nc3ccc(N4CCOCC4)cc3)n2)cc1)c1ccccc1 (stereo not drawn)" target_of_assay="UniProtKB Q6PHR2" label=n
molecule=O=C(c1ccc(-c2ccnc(Nc3cccc(N4CCOCC4)c3)n2)cc1)N1CCC[C@H]1C(F)(F)F target_of_assay="UniProtKB Q6PHR2" label=y
molecule=N#CCNC(=O)c1ccc(-c2nc(Nc3ccc(N4CCOCC4)cc3)ncc2F)cc1 target_of_assay="UniProtKB Q6PHR2" label=n
molecule=N#CCNC(=O)c1ccc(-c2nc(Nc3ccc(N4CCOCC4=O)cc3)ncc2Cl)cc1 target_of_assay="UniProtKB Q6PHR2" label=n
molecule=CN1CCC(c2ccc(Nc3ncc(F)c(-c4ccc(C(=O)NCC#N)cc4)n3)cc2F)CC1 target_of_assay="UniProtKB Q6PHR2" label=y
molecule=O=C(NCC(F)(F)F)c1ccc(-c2ccnc(Nc3cccc(N4CCOCC4)c3)n2)cc1 target_of_assay="UniProtKB Q6PHR2" label=n

* * *

Read-out record for UniProtKB O60674: IC50
Property Name: IC50

molecule="N#CCNC(=O)c1ccc(-c2nc(Nc3ccc(N4CCOCC4)cc3)nc3[nH]ccc23)cc1 [BL4-139]" target_of_assay="UniProtKB O60674" property_name=IC50 assay_value="< 0.51 nM"
molecule="Cc1cnc(Nc2ccc(N3CCOCC3)cc2)nc1Nc1ccc(Cl)c(NS(=O)(=O)C(C)(C)C)c1 [BH1-150]" target_of_assay="UniProtKB O60674" property_name=IC50 assay_value="1.25 nM"
molecule="O=C(NCC(F)(F)F)c1ccc(-c2ccnc(Nc3ccc(N4CCOCC4)cc3)n2)cc1 [SR8-169]" target_of_assay="UniProtKB O60674" property_name=IC50 assay_value="< 0.508 nM"
molecule="CN1CCN(Cc2ccc(Nc3nc(-c4ccc(C(=O)NCC#N)cc4)c4cc[nH]c4n3)cc2)CC1 [RF1-024]" target_of_assay="UniProtKB O60674" property_name=IC50 assay_value="< 0.508 nM"

* * *

# Target Of Assay: JAK2 (Homo sapiens)
# Sequence (O60674 whole entry): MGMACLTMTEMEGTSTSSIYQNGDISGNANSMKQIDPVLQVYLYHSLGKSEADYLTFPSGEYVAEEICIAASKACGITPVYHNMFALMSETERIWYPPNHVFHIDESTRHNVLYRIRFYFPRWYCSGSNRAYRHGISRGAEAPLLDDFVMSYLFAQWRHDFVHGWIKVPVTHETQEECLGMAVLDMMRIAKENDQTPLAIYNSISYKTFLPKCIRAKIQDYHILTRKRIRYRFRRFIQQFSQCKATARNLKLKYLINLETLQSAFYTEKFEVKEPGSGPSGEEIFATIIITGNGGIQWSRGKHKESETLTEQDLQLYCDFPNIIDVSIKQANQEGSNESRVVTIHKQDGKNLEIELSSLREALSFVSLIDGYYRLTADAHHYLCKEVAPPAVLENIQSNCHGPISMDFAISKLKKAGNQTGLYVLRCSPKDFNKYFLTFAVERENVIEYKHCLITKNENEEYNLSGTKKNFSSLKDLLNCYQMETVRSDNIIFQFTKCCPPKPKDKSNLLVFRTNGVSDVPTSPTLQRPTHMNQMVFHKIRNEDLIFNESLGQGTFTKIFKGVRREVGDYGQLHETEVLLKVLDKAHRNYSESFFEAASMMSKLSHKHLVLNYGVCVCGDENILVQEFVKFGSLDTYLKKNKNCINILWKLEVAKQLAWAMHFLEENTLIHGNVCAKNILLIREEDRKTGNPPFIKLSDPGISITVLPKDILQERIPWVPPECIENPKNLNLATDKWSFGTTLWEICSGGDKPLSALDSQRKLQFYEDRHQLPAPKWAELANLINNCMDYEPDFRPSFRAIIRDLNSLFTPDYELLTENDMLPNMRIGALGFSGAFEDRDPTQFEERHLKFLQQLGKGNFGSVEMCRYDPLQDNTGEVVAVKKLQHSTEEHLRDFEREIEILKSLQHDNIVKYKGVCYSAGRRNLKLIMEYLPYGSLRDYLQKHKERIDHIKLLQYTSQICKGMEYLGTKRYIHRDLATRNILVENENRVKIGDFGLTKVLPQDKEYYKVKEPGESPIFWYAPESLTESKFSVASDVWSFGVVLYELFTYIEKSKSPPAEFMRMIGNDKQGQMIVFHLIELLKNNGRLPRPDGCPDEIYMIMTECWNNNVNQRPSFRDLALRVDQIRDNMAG
# Measurement Description: DSF (JAK2) thermal shift
# Assay type: binding
Property Name: DSF (JAK2) ΔTm (° C.) (°C)

molecule="COC[C@H](Cc1ccccc1)NC(=O)c1ccc(-c2ccnc(Nc3ccc(N4CCOCC4)cc3)n2)cc1 [BR1-012]" assay_value=0.1
molecule="Cc1cnc(Nc2ccc(N3CCOCC3)cc2)nc1Nc1ccc(Cl)c(NS(=O)(=O)C(C)(C)C)c1 [BH1-150]" assay_value=2.1
molecule="O=C(c1ccc(-c2ccnc(Nc3ccc(N4CCOCC4)cc3)n2)cc1)N1CCC[C@H]1C(F)(F)F [BH1-159]" assay_value=1.1
molecule="COC(=O)c1ccc(Nc2nccc(-c3ccc(C(=O)NCC(F)(F)F)cc3)n2)cc1F [BH1-104]" assay_value=0.05
molecule="CN1CCC(c2ccc(Nc3ncc(F)c(-c4ccc(C(=O)NCC#N)cc4)n3)cc2F)CC1 [GM1-064]" assay_value=3.68
molecule="Cc1cnc(Nc2ccc(CN3CCN(C)CC3)cc2)nc1-c1ccc(C(=O)NCC#N)cc1 [BH1-102]" assay_value=4.68
molecule="C[C@H](NC(=O)c1ccc(-c2ccnc(Nc3ccc(N4CCOCC4)cc3)n2)cc1)C(F)(F)F [BH1-152]" assay_value=0.7
molecule="O=C(NC(CO)Cc1ccccc1)c1ccc(-c2ccnc(Nc3ccc(N4CCOCC4)cc3)n2)cc1 (centres unmarked) [BR1-008]" assay_value=0.5
molecule="CC(C)[C@H](CO)NC(=O)c1ccc(-c2ccnc(Nc3ccc(N4CCOCC4)cc3)n2)cc1 [BH1-063]" assay_value=3.6
molecule="CC(C)(C)[C@@H](CO)NC(=O)c1ccc(-c2ccnc(Nc3ccc(N4CCOCC4)cc3)n2)cc1 [BH1-062]" assay_value=1.0
molecule="N#CCNC(=O)c1ccc(-c2ncnc3[nH]ccc23)cc1 [BL4-136]" assay_value=1
molecule="N#CCNC(=O)c1ccc(-c2nc(Nc3ccc(N4CCOCC4)cc3)ncc2Cl)cc1 [GM1-048]" assay_value=6.48
molecule="C[C@@H](NC(=O)c1ccc(-c2ccnc(Nc3ccc(N4CCOCC4)cc3)n2)cc1)C(F)(F)F [BH1-151]" assay_value=0.4
molecule="COc1cc(N2CCOCC2)ccc1Nc1nccc(-c2ccc(C(=O)NCC(F)(F)F)cc2)n1 [BH1-132]" assay_value=0.1

* * *

Documented DSF (ULK3) ΔTm (° C.) across a set of molecules
# Target Of Assay: ULK3 (Homo sapiens)
# Sequence (Q6PHR2 whole entry): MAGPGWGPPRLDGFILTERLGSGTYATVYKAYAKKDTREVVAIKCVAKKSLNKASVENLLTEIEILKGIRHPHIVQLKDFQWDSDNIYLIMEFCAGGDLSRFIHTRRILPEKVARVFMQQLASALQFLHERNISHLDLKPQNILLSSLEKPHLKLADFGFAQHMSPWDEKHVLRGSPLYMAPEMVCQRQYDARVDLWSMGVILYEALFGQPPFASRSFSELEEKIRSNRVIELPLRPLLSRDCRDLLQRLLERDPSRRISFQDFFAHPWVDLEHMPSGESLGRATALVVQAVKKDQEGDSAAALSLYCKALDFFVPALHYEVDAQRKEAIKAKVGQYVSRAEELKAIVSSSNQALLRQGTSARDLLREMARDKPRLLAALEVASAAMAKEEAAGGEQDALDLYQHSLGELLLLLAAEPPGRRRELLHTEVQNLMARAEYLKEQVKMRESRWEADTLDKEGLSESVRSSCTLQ
# Measurement Description: DSF (ULK3) thermal shift
# Format: binding
Property Name: DSF (ULK3) ΔTm (° C.)

chemical_string=O=C(c1ccc(-c2ccnc(Nc3cccc(N4CCOCC4)c3)n2)cc1)N1CCC[C@@H]1C(F)(F)F target_of_assay="ULK3 (Homo sapiens)" property_name="DSF (ULK3) ΔTm (° C.)" assay_value="13.4 °C"
chemical_string=N#CCNC(=O)c1ccc(-c2nc(Nc3ccc(N4CCOCC4=O)cc3)ncc2F)cc1 target_of_assay="ULK3 (Homo sapiens)" property_name="DSF (ULK3) ΔTm (° C.)" assay_value="8.7 °C"
chemical_string=N#CCNC(=O)c1ccc(-c2nc(Nc3ccc(N4CCOCC4)cc3)nc3[nH]ccc23)cc1 target_of_assay="ULK3 (Homo sapiens)" property_name="DSF (ULK3) ΔTm (° C.)" assay_value="15.0 °C"
chemical_string=Cc1cnc(Nc2ccc(N3CCOCC3)cc2)nc1Nc1ccc(Cl)c(NS(=O)(=O)C(C)(C)C)c1 target_of_assay="ULK3 (Homo sapiens)" property_name="DSF (ULK3) ΔTm (° C.)" assay_value="15.0 °C"
